TESTED_ON: Human recombinant cathepsin S (Homo sapiens, UniProt P25774)
Sequence (P25774 115-331): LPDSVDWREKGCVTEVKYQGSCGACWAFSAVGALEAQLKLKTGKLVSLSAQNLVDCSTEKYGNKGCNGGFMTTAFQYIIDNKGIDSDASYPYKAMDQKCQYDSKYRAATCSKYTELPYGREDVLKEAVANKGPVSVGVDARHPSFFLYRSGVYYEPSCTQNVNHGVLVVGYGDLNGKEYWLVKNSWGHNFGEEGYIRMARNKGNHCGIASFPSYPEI
TEST_PROTOCOL: Inhibition of Cathepsin S
TEST_SETTINGS: 10 nM enzyme, pH 6.5, 37° C., fluorescence 360/460 nm
QUANTITY_NAME: IC50

IN: Name the recorded IC50 for `CCC(C)(C)CC[C@@H](NC(=O)N1CCOCC1)C(=O)NC1(C#N)CCN(C)CC1` .
OUT: > 100 nM
